molecular target: EZH2 (in the context of the PRC2 multiprotein complex) (Homo sapiens); test: Histone methyltransferase panel IC50, balanced conditions
Sequence (Q15910 whole entry): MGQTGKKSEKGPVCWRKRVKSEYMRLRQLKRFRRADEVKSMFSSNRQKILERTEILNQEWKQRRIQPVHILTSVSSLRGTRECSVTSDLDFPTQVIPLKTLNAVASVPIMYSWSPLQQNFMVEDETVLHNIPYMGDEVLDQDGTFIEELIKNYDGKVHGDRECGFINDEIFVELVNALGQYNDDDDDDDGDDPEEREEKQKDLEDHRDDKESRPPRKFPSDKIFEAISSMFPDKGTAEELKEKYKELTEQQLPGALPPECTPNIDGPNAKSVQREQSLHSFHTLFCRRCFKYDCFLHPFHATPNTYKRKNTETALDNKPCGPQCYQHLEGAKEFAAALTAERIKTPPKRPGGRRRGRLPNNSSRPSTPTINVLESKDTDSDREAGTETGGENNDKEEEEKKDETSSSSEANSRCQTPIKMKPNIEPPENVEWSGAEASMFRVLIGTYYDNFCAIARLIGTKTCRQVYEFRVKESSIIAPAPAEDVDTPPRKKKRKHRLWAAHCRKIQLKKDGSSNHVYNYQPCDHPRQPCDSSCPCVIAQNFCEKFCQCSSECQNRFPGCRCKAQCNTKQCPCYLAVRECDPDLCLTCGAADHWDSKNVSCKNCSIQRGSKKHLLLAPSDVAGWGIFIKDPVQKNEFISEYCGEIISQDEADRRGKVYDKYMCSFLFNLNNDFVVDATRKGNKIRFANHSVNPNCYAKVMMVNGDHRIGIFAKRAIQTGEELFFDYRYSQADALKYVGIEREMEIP
Sequence (O75530 whole entry partner): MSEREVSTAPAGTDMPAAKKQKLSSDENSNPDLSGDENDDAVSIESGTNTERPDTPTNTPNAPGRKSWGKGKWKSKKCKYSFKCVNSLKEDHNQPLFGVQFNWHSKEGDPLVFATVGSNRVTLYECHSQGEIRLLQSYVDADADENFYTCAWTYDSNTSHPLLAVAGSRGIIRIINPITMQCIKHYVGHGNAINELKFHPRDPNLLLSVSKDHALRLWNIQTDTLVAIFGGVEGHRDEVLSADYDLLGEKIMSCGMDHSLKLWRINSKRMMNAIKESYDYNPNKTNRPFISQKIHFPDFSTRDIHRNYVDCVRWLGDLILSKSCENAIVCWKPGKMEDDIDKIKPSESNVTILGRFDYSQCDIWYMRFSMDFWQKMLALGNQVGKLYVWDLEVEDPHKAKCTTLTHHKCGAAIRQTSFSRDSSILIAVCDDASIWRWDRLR
Sequence (Q15022 whole entry partner): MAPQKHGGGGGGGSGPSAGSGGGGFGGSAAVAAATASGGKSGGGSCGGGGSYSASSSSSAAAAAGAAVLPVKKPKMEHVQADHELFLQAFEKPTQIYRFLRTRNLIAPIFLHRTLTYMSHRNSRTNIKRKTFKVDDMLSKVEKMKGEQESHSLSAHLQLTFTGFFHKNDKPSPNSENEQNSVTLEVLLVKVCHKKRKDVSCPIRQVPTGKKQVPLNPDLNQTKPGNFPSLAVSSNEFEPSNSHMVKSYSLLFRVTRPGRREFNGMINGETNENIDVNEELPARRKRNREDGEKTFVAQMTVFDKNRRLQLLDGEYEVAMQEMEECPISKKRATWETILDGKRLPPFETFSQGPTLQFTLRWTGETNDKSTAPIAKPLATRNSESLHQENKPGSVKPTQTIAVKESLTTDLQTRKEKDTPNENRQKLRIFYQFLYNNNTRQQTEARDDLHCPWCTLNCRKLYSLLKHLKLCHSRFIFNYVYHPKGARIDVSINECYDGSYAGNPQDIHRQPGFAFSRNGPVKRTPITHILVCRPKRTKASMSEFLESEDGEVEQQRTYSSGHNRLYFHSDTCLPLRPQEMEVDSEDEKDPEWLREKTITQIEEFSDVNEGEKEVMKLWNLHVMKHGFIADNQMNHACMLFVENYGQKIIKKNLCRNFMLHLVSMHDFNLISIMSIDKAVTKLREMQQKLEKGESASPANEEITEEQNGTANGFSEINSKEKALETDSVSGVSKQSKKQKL
Sequence (Q09028 whole entry partner): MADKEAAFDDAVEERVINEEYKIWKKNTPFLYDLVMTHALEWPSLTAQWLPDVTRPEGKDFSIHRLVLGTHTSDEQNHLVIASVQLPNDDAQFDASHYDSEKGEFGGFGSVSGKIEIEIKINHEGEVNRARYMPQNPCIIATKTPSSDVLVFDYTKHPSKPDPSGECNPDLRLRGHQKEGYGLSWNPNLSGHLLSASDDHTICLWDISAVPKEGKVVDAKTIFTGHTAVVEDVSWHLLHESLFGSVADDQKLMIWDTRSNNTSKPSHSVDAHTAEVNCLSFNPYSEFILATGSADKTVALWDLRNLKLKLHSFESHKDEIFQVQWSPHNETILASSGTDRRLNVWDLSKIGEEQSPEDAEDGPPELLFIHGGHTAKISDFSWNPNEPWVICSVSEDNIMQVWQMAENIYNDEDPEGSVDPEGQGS
pIC50: −log10 of the molar value.
Measured property: pIC50

(Q) Given CC(C)N(CCCNC(=O)Nc1ccc(C(C)(C)C)cc1)C[C@H]1O[C@@H](n2ccc3c(N)ncnc32)[C@H](O)[C@@H]1O , state its recorded pIC50.
(A) < 4.30

---

target: EZH1 (in the context of the PRC2 multiprotein complex) (Homo sapiens, UniProt Q92800); assay: Histone methyltransferase panel IC50, balanced conditions
Sequence (Q92800 whole entry): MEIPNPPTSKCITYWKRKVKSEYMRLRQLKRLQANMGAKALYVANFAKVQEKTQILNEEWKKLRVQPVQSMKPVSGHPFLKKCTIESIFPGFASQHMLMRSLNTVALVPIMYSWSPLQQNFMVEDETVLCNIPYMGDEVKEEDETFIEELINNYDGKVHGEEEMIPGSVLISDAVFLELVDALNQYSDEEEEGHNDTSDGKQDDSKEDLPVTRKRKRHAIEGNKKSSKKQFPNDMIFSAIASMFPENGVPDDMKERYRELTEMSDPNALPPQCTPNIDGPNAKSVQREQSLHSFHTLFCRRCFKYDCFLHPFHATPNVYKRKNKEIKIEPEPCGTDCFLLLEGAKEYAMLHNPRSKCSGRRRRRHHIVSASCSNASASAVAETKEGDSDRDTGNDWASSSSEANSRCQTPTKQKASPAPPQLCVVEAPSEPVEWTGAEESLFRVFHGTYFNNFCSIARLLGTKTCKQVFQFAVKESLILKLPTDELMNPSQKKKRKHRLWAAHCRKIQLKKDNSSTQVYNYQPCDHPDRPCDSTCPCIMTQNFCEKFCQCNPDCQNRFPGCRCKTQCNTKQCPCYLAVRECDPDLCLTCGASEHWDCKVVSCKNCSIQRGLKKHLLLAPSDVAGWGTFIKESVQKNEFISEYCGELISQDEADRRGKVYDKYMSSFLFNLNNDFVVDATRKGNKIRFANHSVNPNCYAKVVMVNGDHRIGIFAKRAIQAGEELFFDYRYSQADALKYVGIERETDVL
Sequence (O75530 whole entry partner): as the sequence (O75530 whole entry partner) above
Sequence (Q15022 whole entry partner): as the sequence (Q15022 whole entry partner) above
Sequence (Q09028 whole entry partner): as the sequence (Q09028 whole entry partner) above
Measured property: IC50

(Q) Given CC(C)N(CCCNC(=O)Nc1ccc(C(C)(C)C)cc1)C[C@H]1O[C@@H](n2ccc3c(N)ncnc32)[C@H](O)[C@@H]1O , state its recorded IC50.
(A) > 50 µM

---

Target: EHMT2 (Homo sapiens)
Sequence (Q96KQ7 1-1210): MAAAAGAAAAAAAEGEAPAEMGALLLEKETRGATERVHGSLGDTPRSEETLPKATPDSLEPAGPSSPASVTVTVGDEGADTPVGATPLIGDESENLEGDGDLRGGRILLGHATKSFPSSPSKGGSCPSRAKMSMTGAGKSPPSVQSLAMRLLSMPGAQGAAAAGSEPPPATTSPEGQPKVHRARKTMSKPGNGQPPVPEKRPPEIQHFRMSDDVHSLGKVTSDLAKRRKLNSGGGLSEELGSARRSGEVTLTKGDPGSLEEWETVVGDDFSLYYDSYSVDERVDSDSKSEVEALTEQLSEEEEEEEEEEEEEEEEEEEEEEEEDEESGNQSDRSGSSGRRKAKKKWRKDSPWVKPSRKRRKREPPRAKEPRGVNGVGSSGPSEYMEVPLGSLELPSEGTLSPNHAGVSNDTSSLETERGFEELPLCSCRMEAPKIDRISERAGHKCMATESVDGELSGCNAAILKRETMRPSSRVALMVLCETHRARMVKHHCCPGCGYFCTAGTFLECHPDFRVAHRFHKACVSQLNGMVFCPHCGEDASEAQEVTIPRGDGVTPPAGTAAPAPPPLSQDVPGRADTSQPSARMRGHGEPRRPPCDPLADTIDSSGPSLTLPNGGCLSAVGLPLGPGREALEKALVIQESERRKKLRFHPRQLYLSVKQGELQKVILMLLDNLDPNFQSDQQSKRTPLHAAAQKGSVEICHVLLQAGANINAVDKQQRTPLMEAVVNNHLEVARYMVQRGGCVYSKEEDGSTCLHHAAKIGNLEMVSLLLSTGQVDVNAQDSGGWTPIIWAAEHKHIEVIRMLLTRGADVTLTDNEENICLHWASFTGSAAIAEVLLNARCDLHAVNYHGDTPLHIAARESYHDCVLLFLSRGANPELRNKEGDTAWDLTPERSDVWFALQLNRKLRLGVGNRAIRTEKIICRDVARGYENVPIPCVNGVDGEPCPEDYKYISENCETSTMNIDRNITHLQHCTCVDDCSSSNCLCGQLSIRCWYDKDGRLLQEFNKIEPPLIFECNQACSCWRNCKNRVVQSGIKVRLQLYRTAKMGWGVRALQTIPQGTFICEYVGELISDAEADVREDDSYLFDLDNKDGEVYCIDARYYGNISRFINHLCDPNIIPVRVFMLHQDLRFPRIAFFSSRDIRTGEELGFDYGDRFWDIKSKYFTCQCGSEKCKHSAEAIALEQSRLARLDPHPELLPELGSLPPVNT
Measured property: IC50

(Q) Given CC(C)N(CCCNC(=O)Nc1ccc(C(C)(C)C)cc1)C[C@H]1O[C@@H](n2ccc3c(N)ncnc32)[C@H](O)[C@@H]1O [EPZ004777] , state its recorded IC50.
(A) > 50 µM

---

test: Solubility; format: physicochemical
Measured property: solubility

(Q) Given CC(C)N(CCCNC(=O)Nc1ccc(C(C)(C)C)cc1)C[C@H]1O[C@@H](n2ccc3c(N)ncnc32)[C@H](O)[C@@H]1O [EPZ004777] , state its recorded solubility.
(A) ≤ 50 µM

---

test system: HOXA9 and MEIS1 transcript levels in MOLM-13 cells; assay: Quantitative real-time PCR, concentration response; details: Homo sapiens, MOLM-13, 144 h, read-out: IC50 decrease of HOXA9 transcript
pIC50: −log10 of the molar value.
Measured property: pIC50

(Q) Given CC(C)N(CCCNC(=O)Nc1ccc(C(C)(C)C)cc1)C[C@H]1O[C@@H](n2ccc3c(N)ncnc32)[C@H](O)[C@@H]1O , state its recorded pIC50.
(A) ~6.15

---

target: PRMT8 (Homo sapiens, UniProt Q9NR22)
Sequence (Q9NR22 whole entry): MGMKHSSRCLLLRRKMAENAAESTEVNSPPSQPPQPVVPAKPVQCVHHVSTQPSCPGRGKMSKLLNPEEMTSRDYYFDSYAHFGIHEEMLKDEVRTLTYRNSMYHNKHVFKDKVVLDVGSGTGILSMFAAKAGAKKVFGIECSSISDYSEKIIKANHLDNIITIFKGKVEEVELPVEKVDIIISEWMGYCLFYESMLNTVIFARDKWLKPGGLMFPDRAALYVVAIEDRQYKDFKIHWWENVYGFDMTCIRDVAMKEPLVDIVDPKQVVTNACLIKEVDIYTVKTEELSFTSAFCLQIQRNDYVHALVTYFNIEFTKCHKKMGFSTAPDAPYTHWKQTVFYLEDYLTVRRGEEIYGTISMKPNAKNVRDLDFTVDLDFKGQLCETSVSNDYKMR
Measured property: IC50

(Q) Request: IC50, test system PRMT8 (Homo sapiens, UniProt Q9NR22), entry CC(C)N(CCCNC(=O)Nc1ccc(C(C)(C)C)cc1)C[C@H]1O[C@@H](n2ccc3c(N)ncnc32)[C@H](O)[C@@H]1O
(A) > 50 µM

---

molecular target: PRMT1 (Homo sapiens)
Sequence (Q99873 whole entry): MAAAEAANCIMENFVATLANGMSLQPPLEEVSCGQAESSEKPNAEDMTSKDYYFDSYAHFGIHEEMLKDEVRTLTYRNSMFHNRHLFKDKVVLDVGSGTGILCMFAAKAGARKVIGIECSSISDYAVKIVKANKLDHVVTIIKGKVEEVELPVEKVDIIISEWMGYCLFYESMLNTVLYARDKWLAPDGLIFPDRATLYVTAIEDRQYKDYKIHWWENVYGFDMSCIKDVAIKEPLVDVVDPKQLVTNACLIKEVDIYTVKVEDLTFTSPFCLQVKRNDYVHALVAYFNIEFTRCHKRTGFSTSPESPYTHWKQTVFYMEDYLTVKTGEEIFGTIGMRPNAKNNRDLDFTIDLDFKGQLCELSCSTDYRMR
pIC50: −log10 of the molar value.
Measured property: pIC50

(Q) Request: pIC50, test system PRMT1 (Homo sapiens), entry CC(C)N(CCCNC(=O)Nc1ccc(C(C)(C)C)cc1)C[C@H]1O[C@@H](n2ccc3c(N)ncnc32)[C@H](O)[C@@H]1O
(A) < 4.30

---

system: REH cells (nonrearranged); experiment: Cell proliferation, viable cell count; format: cell-based; conditions: Homo sapiens, 336 h, read-out: IC50 inhibition of cell proliferation
Measured property: IC50 (µM)
The answer is to be given in µM; state only the numeric part.

(Q) Given CC(C)N(CCCNC(=O)Nc1ccc(C(C)(C)C)cc1)C[C@H]1O[C@@H](n2ccc3c(N)ncnc32)[C@H](O)[C@@H]1O , state its recorded IC50.
(A) 13.9
